Recorded pKi values (5-HT6 receptor (Homo sapiens)) are given below.
pKi: −log10 of the molar value.
readout: pKi

compound: O=S(=O)(N[C@@H]1CCN(CCCc2noc3cc(F)ccc23)C1)c1cc2ccccc2s1 [Compound 196]
observed.measurement: 8.19

compound: Cc1cccc(S(=O)(=O)NC2CCN(CCCc3c[nH]c4ccc(F)cc34)C2)c1 (centres unmarked) [Compound 78]
observed.measurement: 7.38

compound: O=S(=O)(NCC1CN(CCOc2cccc3ccccc23)C1)c1ccc2ccccc2c1 [Compound 122]
observed.measurement: 7.89

compound: Cc1c(S(=O)(=O)NCC2CN(CCCc3noc4cc(F)ccc34)C2)sc2ccc(F)cc12 [Compound 130]
observed.measurement: 8.01

compound: O=S(=O)(NCC1CN(CCCc2noc3cc(F)ccc23)C1)c1cc2ccccc2s1 [Compound 127]
observed.measurement: 7.74

compound: Cc1cccc(S(=O)(=O)NC2CCN(CCCc3c[nH]c4ccc(Cl)cc34)C2)c1 (centres unmarked) [Compound 86]
observed.measurement: 7.89

compound: COc1ccc2cc(S(=O)(=O)N[C@H]3CCN(CCCc4noc5cc(F)ccc45)C3)ccc2c1 [Compound 231]
observed.measurement: 7.10

compound: Cc1c(S(=O)(=O)N[C@@H]2CCN(CCCc3noc4cc(F)ccc34)C2)sc2ccc(F)cc12 [Compound 202]
observed.measurement: 8.15

src = patent US20140135310A1
